Provenance of the data: the supplement of paper PMC12645437

MEASURED ON: T1, CRBN, Q96SW2
T1 chain: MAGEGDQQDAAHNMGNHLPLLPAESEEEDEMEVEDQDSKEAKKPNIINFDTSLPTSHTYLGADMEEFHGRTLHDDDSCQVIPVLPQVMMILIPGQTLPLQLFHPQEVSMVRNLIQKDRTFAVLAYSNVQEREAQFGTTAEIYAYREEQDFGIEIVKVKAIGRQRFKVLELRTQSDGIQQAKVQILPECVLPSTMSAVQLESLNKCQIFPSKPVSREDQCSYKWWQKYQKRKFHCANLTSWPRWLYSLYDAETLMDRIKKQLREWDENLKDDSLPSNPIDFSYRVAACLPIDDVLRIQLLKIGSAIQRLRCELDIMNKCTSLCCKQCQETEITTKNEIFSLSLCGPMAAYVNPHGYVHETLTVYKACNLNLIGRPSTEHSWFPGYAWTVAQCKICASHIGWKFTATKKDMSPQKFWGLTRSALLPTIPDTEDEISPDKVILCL
EXPERIMENT: log2 fold change of degron read counts, EGFP-low vs EGFP+ sorted cells (limma voom), compound-induced degradation; higher = more compound-induced degradation of the degron-EGFP fusion; degrons are variants of IKZF1/3 zinc finger 2; compound dose not given here;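 note: pooled lentiviral library of zinc finger degron-EGFP fusions in mCherry-positive Jurkat cells, FACS-sorted after compound exposure, with degron abundance counted by next-generation sequencing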
RUN PARAMETERS: Jurkat; 18 h; compound: compound 33 (diphenyl IMiD analogue)
Whole data set: some 8,300 sequences, median “log2 fold change of degron read counts, EGFP-low vs EGFP+ sorted cells (limma voom), compound-induced degradation” near -1.1, cut for the highest 2% near 3.2. Only a selection was taken, and the highest values are over-represented in it overall.
Quick list: log2 fold change of degron read counts per entry.
Lab note: record the figure alone, no unit after it.

Solved cases below.
{"SEQUENCE DATA": "FDCEICGHGFTQKGNLLRHIKL [46F_47D_49E_50I_52G_53H_54G_55F_67L_, Q9UKT9]", "log2 fold change of degron read counts": -3}
{"SEQUENCE DATA": "FLCPVCGATFTQKGNLLRHIKL [46F_47L_49P_50V_52G_53A_54T_55F_67L_, Q9UKT9]", "log2 fold change of degron read counts": 0.984}
{"SEQUENCE DATA": "FNCPVCGATFTQKGNLLRHIKL [46F_47N_49P_50V_52G_53A_54T_55F_67L_, Q9UKT9]", "log2 fold change of degron read counts": 1.21}
{"SEQUENCE DATA": "FQCPVCGATFTQKGNLLRHIKL [46F_47Q_49P_50V_52G_53A_54T_55F_67L_, Q9UKT9]", "log2 fold change of degron read counts": 2.57}
{"SEQUENCE DATA": "FACEICGAVFTQKGNLLRHIKL [46F_47A_49E_50I_52G_53A_54V_55F_67L_, Q9UKT9]", "log2 fold change of degron read counts": 1.27}

Look up log2 fold change of degron read counts for this sequence: FDCNICGARFTQKGNLLRHIKL [46F_47D_49N_50I_52G_53A_54R_55F_67L_, Q9UKT9]
-0.123

Would you mind doing FECEICGAVFTQKGNLLRHIKL [46F_47E_49E_50I_52G_53A_54V_55F_67L_, Q9UKT9] as well?
1.98

Would you mind doing FCCEICGAVFTQKGNLLRHIKL [46F_47C_49E_50I_52G_53A_54V_55F_67L_, Q9UKT9] as well?
2.47

Would you mind doing LKCPICGFDCTQKGNLLRHIKL [46L_47K_49P_50I_52G_53F_54D_55C_67L_, Q9UKT9] as well?
-1.08

Would you mind doing FKCPVCGATFTQKGNLLRHIKL [46F_47K_49P_50V_52G_53A_54T_55F_67L_, Q9UKT9] as well?
-2.5
